molecular target: T1, cyno FcRn/b2M (cyno, UniProt Q8SPV9 24-297; Q8SPW0 21-119, biotinylated); assay: SPR pH 6.0
T1 construct: bought recombinant biotinylated protein (Immunitrack ITF05 or ACRO FCM-C82W5); also called cFcRn; cFcRn/cb2M
T1 sequence (Q8SPV9 24-297 limits assumed, chain 1 of 2): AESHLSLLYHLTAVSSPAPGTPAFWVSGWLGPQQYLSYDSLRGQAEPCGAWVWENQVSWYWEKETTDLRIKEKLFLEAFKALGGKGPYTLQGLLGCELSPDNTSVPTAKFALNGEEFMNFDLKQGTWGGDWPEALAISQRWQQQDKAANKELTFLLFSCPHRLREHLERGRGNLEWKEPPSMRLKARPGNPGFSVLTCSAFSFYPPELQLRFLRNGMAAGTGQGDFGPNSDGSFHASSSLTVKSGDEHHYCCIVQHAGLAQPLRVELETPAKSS
T1 sequence (Q8SPW0 21-119 limits assumed, chain 2 of 2): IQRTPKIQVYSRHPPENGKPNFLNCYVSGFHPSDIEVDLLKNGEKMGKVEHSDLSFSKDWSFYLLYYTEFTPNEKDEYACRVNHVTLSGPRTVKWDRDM
pKd: −log10 of the molar value.
Below, each of the binders is paired with its reported pKd value.
VALUE KIND: pKd

binder="T026301192 (bispecific antibody, name in Kabat numbering, bispecific ISVD construct; also called T0263018B11(E1D, S100E)-35GS-ALB23002-A) DVQLVESGGGVVQPGGSLRLSCAASGFTFSSYAMYWVRQAPGKGLEWVSAISSGGGSTDYADSVKGRFTISRDNSKNTLYLQMNSLRPEDTALYYCAADTLYTELTWYSYWGQGTLVTVSSGGGGSGGGGSGGGGSGGGGSGGGGSGGGGSGGGGSEVQLVESGGGVVQPGGSLRLSCAASGFTFRSFGMSWVRQAPGKGPEWVSSISGSGSDTLYADSVKGRFTISRDNSKNTLYLQMNSLRPEDTALYYCTIGGSLSRSSQGTLVTVSSA" measured_result=6.85
binder="T026301197 (bispecific antibody, name in Kabat numbering, bispecific ISVD construct; also called T0263018B11(E1D, S52aQ)-35GS-ALB23002-A) DVQLVESGGGVVQPGGSLRLSCAASGFTFSSYAMYWVRQAPGKGLEWVSAISQGGGSTDYADSVKGRFTISRDNSKNTLYLQMNSLRPEDTALYYCAADTLYTSLTWYSYWGQGTLVTVSSGGGGSGGGGSGGGGSGGGGSGGGGSGGGGSGGGGSEVQLVESGGGVVQPGGSLRLSCAASGFTFRSFGMSWVRQAPGKGPEWVSSISGSGSDTLYADSVKGRFTISRDNSKNTLYLQMNSLRPEDTALYYCTIGGSLSRSSQGTLVTVSSA" measured_result=7.39
binder="T026301170 (bispecific antibody, bispecific ISVD construct; also called T0263018B11(E1D)-35GS-ALB23002-A) DVQLVESGGGVVQPGGSLRLSCAASGFTFSSYAMYWVRQAPGKGLEWVSAISSGGGSTDYADSVKGRFTISRDNSKNTLYLQMNSLRPEDTALYYCAADTLYTSLTWYSYWGQGTLVTVSSGGGGSGGGGSGGGGSGGGGSGGGGSGGGGSGGGGSEVQLVESGGGVVQPGGSLRLSCAASGFTFRSFGMSWVRQAPGKGPEWVSSISGSGSDTLYADSVKGRFTISRDNSKNTLYLQMNSLRPEDTALYYCTIGGSLSRSSQGTLVTVSSA" measured_result=8.10
binder="T026301196 (bispecific antibody, name in Kabat numbering, bispecific ISVD construct; also called T0263018B11(E1D, G26T, S52aQ, W100cS)-35GS-ALB23002-A) DVQLVESGGGVVQPGGSLRLSCAASTFTFSSYAMYWVRQAPGKGLEWVSAISQGGGSTDYADSVKGRFTISRDNSKNTLYLQMNSLRPEDTALYYCAADTLYTSLTSYSYWGQGTLVTVSSGGGGSGGGGSGGGGSGGGGSGGGGSGGGGSGGGGSEVQLVESGGGVVQPGGSLRLSCAASGFTFRSFGMSWVRQAPGKGPEWVSSISGSGSDTLYADSVKGRFTISRDNSKNTLYLQMNSLRPEDTALYYCTIGGSLSRSSQGTLVTVSSA" measured_result=6.29
binder="T026301198 (bispecific antibody, name in Kabat numbering, bispecific ISVD construct; also called T0263018B11(E1D, W100cS)-35GS-ALB23002-A) DVQLVESGGGVVQPGGSLRLSCAASGFTFSSYAMYWVRQAPGKGLEWVSAISSGGGSTDYADSVKGRFTISRDNSKNTLYLQMNSLRPEDTALYYCAADTLYTSLTSYSYWGQGTLVTVSSGGGGSGGGGSGGGGSGGGGSGGGGSGGGGSGGGGSEVQLVESGGGVVQPGGSLRLSCAASGFTFRSFGMSWVRQAPGKGPEWVSSISGSGSDTLYADSVKGRFTISRDNSKNTLYLQMNSLRPEDTALYYCTIGGSLSRSSQGTLVTVSSA" measured_result=7.17

Every entry's value here was drawn from patent US20240132624A1.
